# Test system: 3T3 murine fibroblasts
# PROTOCOL NOTES: Cytotoxicity on 3T3 cells (MTT assay)
# Assay type: cell-based
# CONDITION SET: Mus musculus, Fibroblast, 24 h, read-out: IC50 for toxicity on 3T3 murine fibroblasts
ENDPOINT NAME: IC50

INSERT INTO assay_data (compound, target_under_test, endpoint_name, test_result) VALUES
  ('c1cc[n+](CCCCCCCCCC[n+]2ccccc2)cc1 [[PyC10Py]Br2, decylbispyridinium dibromide, reference compound]', '3T3 murine fibroblasts', 'IC50', '> 100 µM');

---

Property: log10 IC50; scope: individual compounds
# System: Pseudomonas aeruginosa (ATCC 27853)
# PROTOCOL NOTES: Antimicrobial activity, growth inhibition (OD 600 nm)
# Format: cell-based
# CONDITION SET: 6 h, 0.03–100 µM; interval in brackets; read-out: IC50 P. aeruginosa
ENDPOINT NAME: log10 IC50 (log10 of the value in µM)

INSERT INTO measurements (compound, target_under_test, test_result) VALUES
  ('CCCCCCCCCC[n+]1ccccc1.CO/N=C(\C(=O)N[C@@H]1C(=O)N2C(C(=O)[O-])=C(COC(N)=O)CS[C@H]12)c1ccco1 [[C10Py][CFX]]', 'Pseudomonas aeruginosa (ATCC 27853)', 1.22),
  ('CCCCCC[n+]1ccccc1.CO/N=C(\C(=O)N[C@@H]1C(=O)N2C(C(=O)[O-])=C(COC(N)=O)CS[C@H]12)c1ccco1 [[C6Py][CFX]]', 'Pseudomonas aeruginosa (ATCC 27853)', 0.60),
  ('CCCCCCCCCCCCCCCC[n+]1ccn(C)c1.CO/N=C(\C(=O)N[C@@H]1C(=O)N2C(C(=O)[O-])=C(COC(N)=O)CS[C@H]12)c1ccco1 [[C16MIM][CFX]]', 'Pseudomonas aeruginosa (ATCC 27853)', 0.60),
  ('CO/N=C(\C(=O)N[C@@H]1C(=O)N2C(C(=O)[O-])=C(COC(N)=O)CS[C@H]12)c1ccco1.CO/N=C(\C(=O)N[C@@H]1C(=O)N2C(C(=O)[O-])=C(COC(N)=O)CS[C@H]12)c1ccco1.c1cc[n+](CCCCCCCCCC[n+]2ccccc2)cc1 [[PyC10Py][CFX]2]', 'Pseudomonas aeruginosa (ATCC 27853)', -0.18),
  ('CCCCCCCCCCCCCCCC[n+]1ccccc1.CO/N=C(\C(=O)N[C@H]1C(=O)N2C(C(=O)[O-])=C(COC(N)=O)CS[C@@H]12)c1ccco1 [[C16Py][CFX]]', 'Pseudomonas aeruginosa (ATCC 27853)', 0.66);

Data provenance: paper PMC11510342
